# Test system: human, KCNT1 (Homo sapiens (Human), UniProt Q5JUK3)
# Sequence (Q5JUK3 whole entry): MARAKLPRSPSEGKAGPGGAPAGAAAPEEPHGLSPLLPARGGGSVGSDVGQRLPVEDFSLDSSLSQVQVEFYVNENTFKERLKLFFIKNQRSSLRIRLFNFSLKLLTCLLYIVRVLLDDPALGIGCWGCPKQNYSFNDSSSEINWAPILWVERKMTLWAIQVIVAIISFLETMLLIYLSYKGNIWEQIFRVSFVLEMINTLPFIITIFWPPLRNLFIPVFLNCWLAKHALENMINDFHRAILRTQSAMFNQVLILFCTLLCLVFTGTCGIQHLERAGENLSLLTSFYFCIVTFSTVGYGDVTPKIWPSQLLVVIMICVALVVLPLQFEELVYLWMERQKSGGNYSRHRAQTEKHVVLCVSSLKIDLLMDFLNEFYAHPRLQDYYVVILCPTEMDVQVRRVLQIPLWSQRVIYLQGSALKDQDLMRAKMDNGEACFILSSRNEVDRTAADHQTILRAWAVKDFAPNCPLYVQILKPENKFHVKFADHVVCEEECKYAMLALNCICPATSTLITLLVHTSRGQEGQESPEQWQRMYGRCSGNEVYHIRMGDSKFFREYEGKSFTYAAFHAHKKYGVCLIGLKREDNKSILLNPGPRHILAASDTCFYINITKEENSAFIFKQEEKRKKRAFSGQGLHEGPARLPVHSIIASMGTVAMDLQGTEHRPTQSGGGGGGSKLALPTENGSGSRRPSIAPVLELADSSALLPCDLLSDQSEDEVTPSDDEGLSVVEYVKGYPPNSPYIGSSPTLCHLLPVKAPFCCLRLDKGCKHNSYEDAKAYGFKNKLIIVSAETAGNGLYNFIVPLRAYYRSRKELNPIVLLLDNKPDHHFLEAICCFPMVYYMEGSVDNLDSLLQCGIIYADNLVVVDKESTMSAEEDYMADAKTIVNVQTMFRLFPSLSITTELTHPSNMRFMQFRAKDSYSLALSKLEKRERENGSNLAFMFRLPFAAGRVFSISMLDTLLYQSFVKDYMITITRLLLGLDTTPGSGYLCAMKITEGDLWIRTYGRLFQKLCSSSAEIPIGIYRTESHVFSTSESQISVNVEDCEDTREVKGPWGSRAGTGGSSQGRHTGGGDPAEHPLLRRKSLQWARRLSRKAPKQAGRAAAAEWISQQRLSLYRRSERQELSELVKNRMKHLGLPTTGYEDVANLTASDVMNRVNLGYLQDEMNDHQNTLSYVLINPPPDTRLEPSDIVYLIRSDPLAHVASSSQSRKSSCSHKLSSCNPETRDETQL
# Assay procedure: FLIPR Tl/K Flux Assay
# Experimental setup: HEK293 cells stably expressing human KCNT1; Tl+ flux stimulated with EC80 of agonist Loxapine
pIC50: −log10 of the molar value.
Property: pIC50

Prompt line: Need pIC50 of `Cn1nc(C(F)(F)F)cc1C(=O)N[C@@H]1CCc2nn(-c3ccnc(C(F)(F)F)c3)cc21` , thanks.
Response line: < 6.00

Prompt line: Need pIC50 of Cc1ccc(C(=O)N[C@@H]2CCc3nn(-c4ccnc(C(F)(F)F)c4)cc32)c(C)c1 [Compound I-93b] , thanks.
Response line: < 6.00

Prompt line: Need pIC50 of O=C(N[C@H]1CCCn2nc(-c3ccnc(C(F)(F)F)c3)cc21)c1cc2n(n1)CCC2 [Compound I-368a] , thanks.
Response line: < 6.00

Prompt line: Need pIC50 of Cc1c2c(nn1-c1ccnc(C(F)(F)F)c1)CCC[C@@H]2NC(=O)c1cc(C(F)(F)F)nn1C [Compound I-90a] , thanks.
Response line: 6.30 to 6.60

Prompt line: Need pIC50 of Cn1nc(C(F)(F)F)cc1C(=O)N[C@H]1CCCc2nn(-c3ccnc(C#N)c3)cc21 [Compound I-375a] , thanks.
Response line: < 6.00

Prompt line: Need pIC50 of O=C(N[C@H]1CCc2nc(-c3ccnc(C(F)(F)F)c3)ccc21)c1cccc(C(F)(F)F)c1 [Compound I-133a] , thanks.
Response line: > 6.60

Prompt line: Need pIC50 of Cn1nc(C(F)(F)F)cc1C(=O)N[C@H]1CCn2nc(-c3ccnc(OC(F)F)c3)cc21 [Compound I-233a] , thanks.
Response line: > 6.60

Prompt line: Need pIC50 of Cn1nc(C(F)F)nc1C(=O)N[C@H]1CCn2nc(-c3ccnc(C(F)(F)F)c3)cc21 [Compound I-155a] , thanks.
Response line: > 6.60

Prompt line: Need pIC50 of COc1cc(C#N)cc(C(=O)N[C@H]2CCCn3nc(-c4ccnc(C(F)(F)F)c4)cc32)c1 [Compound I-341a] , thanks.
Response line: > 6.60

Prompt line: Need pIC50 of Cn1nc(C(F)(F)F)cc1C(=O)N[C@H]1CCc2nn(-c3ccnc(C(C)(F)F)c3)cc21 [Compound I-77a] , thanks.
Response line: > 6.60

Prompt line: Need pIC50 of COc1cc(-c2cc3n(n2)CC[C@@H]3NC(=O)c2cc(C(F)(F)F)nn2C)c(F)cn1 [Compound I-243a] , thanks.
Response line: > 6.60

Prompt line: Need pIC50 of O=C(N[C@H]1CCCn2nc(-c3ccnc(C(F)(F)F)c3)cc21)c1cc2cccnn2c1 [Compound I-442a] , thanks.
Response line: > 6.60

Prompt line: Need pIC50 of COc1cc(-c2cc3n(n2)CCC[C@@H]3NC(=O)c2cc(C(F)(F)F)nn2C)cc(C)n1 [Compound I-431a] , thanks.
Response line: > 6.60

Prompt line: Need pIC50 of O=C(N[C@H]1CCn2nc(-c3ccnc(C(F)(F)F)c3)cc21)c1cnn(C(F)(F)F)c1 [Compound I-573a] , thanks.
Response line: > 6.60

Prompt line: Need pIC50 of O=C(N[C@H]1CCc2nn(-c3ccnc(C(F)(F)F)c3)cc21)C12CC(C(F)(F)F)(C1)C2 [Compound I-553a] , thanks.
Response line: > 6.60
